System: HIV-1
methodDescription: microbe, parasite or virus in culture
experimentalSetup: Human immunodeficiency virus 1, CEM-T4, 168 h, wild-type HIV-1 in CEM-T4 cells, p24 antigen, 7 days; 50% inhibition of replication
pIC50: −log10 of the molar value.
Let's look at some molecules and their measured pIC50.

| molecule | pIC50 |
| --- | --- |
| C=C(COP(=O)(OCC)OCC)C1CCC2(C(=O)O)CCC3(C)C(CCC4C5(C)CCC(OC(=O)CCC(C)(C)C(=O)O)C(C)(C)C5CCC43C)C12 (stereo not shown) [Compound 12c] | 5.40 |

Ask: Looking for the measured pIC50 of CCOP(=O)(C=C(C)C1CCC2(C(=O)O)CCC3(C)C(CCC4C5(C)CCC(OC(=O)CC(C)(C)C(=O)O)C(C)(C)C5CCC43C)C12)OCC (stereo not shown) [Compound 13a] , can you help?
Result: > 5.70

Ask: Looking for the measured pIC50 of C=C(C)[C@@H]1CC[C@]2(CO)CC[C@]3(C)[C@H](CC[C@@H]4[C@@]5(C)CC[C@H](O)C(C)(C)[C@@H]5CC[C@]43C)[C@@H]12 [betulin, lup-20(29)-ene-3β,28-diol, reference compound] , can you help?
Result: < 5.00

Ask: Looking for the measured pIC50 of C=C(COP(=O)(OCC)OCC)C1CCC2(C(=O)O)CCC3(C)C(CCC4C5(C)CCC(OC(=O)CC(C)(C)C(=O)O)C(C)(C)C5CCC43C)C12 (stereo not shown) [Compound 12a] , can you help?
Result: > 5.70

Ask: Looking for the measured pIC50 of C=C(CP(=O)(OCC)OCC)C1CCC2(C(=O)O)CCC3(C)C(CCC4C5(C)CCC(OC(=O)CCC(C)(C)C(=O)O)C(C)(C)C5CCC43C)C12 (stereo not shown) [Compound 14c] , can you help?
Result: 6.00

Ask: Looking for the measured pIC50 of C=C(COP(=O)(OCC)OCC)C1CCC2(C(=O)O)CCC3(C)C(CCC4C5(C)CCC(O)C(C)(C)C5CCC43C)C12 (stereo not shown) , can you help?
Result: < 5.00

Where these numbers come from: paper PMC6829466
